Test system: PANC08.13 cells
Test: Cellular phospho-ERK assay, PANC08.13 cells (homozygous KRAS-G12D)
Assay type: cell-based
Conditions: Homo sapiens, PANC-08-13, 2 hours compound incubation, read-out: PANC-08.13 pERK IC50
experimental readout: pIC50
Scale: negative log10 of molar concentration, which is what pIC50 denotes.

[in] Using the record for Cc1cc2[nH]nc(C#N)c2c(-c2nccc3c2sc2nc(OC[C@@]45CCCN4C[C@H](F)C5)nc(N4CCOC[C@@](C)(O)C4)c23)c1C(F)(F)F , report its pIC50.
[out] 6.01

[in] Using the record for C=C(C)c1c(C)cc2[nH]ncc2c1-c1nccc2c1sc1nc(OC[C@@]34CCCN3C[C@H](F)C4)nc(N3CCOC[C@@](C)(O)C3)c12 , report its pIC50.
[out] 7.23

[in] Using the record for C[C@@]1(O)COCCN(c2nc(OC[C@@]34CCCN3C[C@H](F)C4)nc3sc4c(-c5c(C(F)F)c(Cl)cc6[nH]ncc56)nccc4c23)C1 , report its pIC50.
[out] 6.55

[in] Using the record for C[C@@]1(O)COCCN(c2nc(OC[C@@]34CCCN3C[C@H](F)C4)nc3sc4c(-c5c(C(F)F)ccc6[nH]ncc56)nccc4c23)C1 , report its pIC50.
[out] 5.57

[in] Using the record for C#Cc1c(F)ccc2cc(O)cc(-c3nccc4c3sc3nc(OC[C@@]56CCCN5C[C@H](F)C6)nc(N5CCOC[C@@](C)(O)C5)c34)c12 , report its pIC50.
[out] 8.85

[in] Using the record for C#Cc1c(F)ccc2nc(N)cc(-c3nccc4c3sc3nc(OC[C@@]56CCCN5C[C@H](F)C6)nc(N5CCOC[C@@](C)(O)C5)c34)c12 , report its pIC50.
[out] 5.77

[in] Using the record for Cc1cc2[nH]ncc2c(-c2nccc3c2sc2nc(OC[C@@]45CCCN4C[C@H](F)C5)nc(N4CCOC(CO)C4)c23)c1C(F)(F)F (stereo partly drawn) , report its pIC50.
[out] 5.41

[in] Using the record for Cc1cc2[nH]ncc2c(-c2nccc3c2sc2nc(OC[C@@]45CCCN4C[C@H](F)C5)nc(N4CCOCC4)c23)c1C(F)(F)F , report its pIC50.
[out] 5.41

[in] Using the record for Cc1cc2[nH]ncc2c(-c2nccc3c2sc2nc(OC[C@@]45CCCN4C[C@H](F)C5)nc(NC4COC4)c23)c1C(F)(F)F , report its pIC50.
[out] 6.09
